Listing: electrical conductivity of selected compounds
Experiment: xn = mol fraction of the nth substance listed
Conditions: 303.15 K; 101 kPa; Liquid; Direct current cell with electrodes; x1 = 0.2
experimental endpoint: electrical conductivity (S/m)

                                   compound  assay_result
0  C[P+](c1ccccc1)(c1ccccc1)c1ccccc1.[Br-] [methyltriphenylphosphonium bromide] + OCC(O)CO        0.0198
1  CCN(CC)CCO.Cl [2-(diethylamino)ethanol hydrochloride] + OCC(O)CO         0.078
2  C[P+](c1ccccc1)(c1ccccc1)c1ccccc1.[Br-] [methyltriphenylphosphonium bromide] + OCCO         0.219
3  CCN(CC)CCO.Cl [2-(diethylamino)ethanol hydrochloride] + OCCO         0.699

---

Test: xn = mol fraction of the nth substance listed
Conditions: 318.15 K; 101 kPa; Liquid; Direct current cell with electrodes; x1 = 0.2
# electrical conductivity annotations
experimental endpoint: electrical conductivity (S/m)

>>> df
                                   compound    experimental_endpoint  assay_result
0  CCN(CC)CCO.Cl [2-(diethylamino)ethanol hydrochloride] + OCCO  electrical conductivity          1.16
1  C[P+](c1ccccc1)(c1ccccc1)c1ccccc1.[Br-] [methyltriphenylphosphonium bromide] + OCC(O)CO  electrical conductivity        0.0607
2  CCN(CC)CCO.Cl [2-(diethylamino)ethanol hydrochloride] + OCC(O)CO  electrical conductivity         0.188
3  C[P+](c1ccccc1)(c1ccccc1)c1ccccc1.[Br-] [methyltriphenylphosphonium bromide] + OCCO  electrical conductivity         0.386

---

Assay: xn = mol fraction of the nth substance listed
Settings: 348.15 K; 101 kPa; Liquid; Direct current cell with electrodes; x1 = 0.2
experimental endpoint: electrical conductivity (S/m)

                                   compound    experimental_endpoint  assay_result
0  CCN(CC)CCO.Cl [2-(diethylamino)ethanol hydrochloride] + OCCO  electrical conductivity          2.23
1  C[P+](c1ccccc1)(c1ccccc1)c1ccccc1.[Br-] [methyltriphenylphosphonium bromide] + OCC(O)CO  electrical conductivity         0.287
2  CCN(CC)CCO.Cl [2-(diethylamino)ethanol hydrochloride] + OCC(O)CO  electrical conductivity         0.533
3  C[P+](c1ccccc1)(c1ccccc1)c1ccccc1.[Br-] [methyltriphenylphosphonium bromide] + OCCO  electrical conductivity         0.907

---

Test: xn = mol fraction of the nth substance listed
Conditions: 353.15 K; 101 kPa; Liquid; Direct current cell with electrodes; x1 = 0.34
Label rule, in plain words: electrical conductivity of 1 S/m and up is true (1), under 1 S/m is false (0).

                                   molecule  class_label
0  C[N+](C)(C)CCO.[Cl-] [choline chloride] + OCCO     true (1)
1  C[P+](c1ccccc1)(c1ccccc1)c1ccccc1.[Br-] [methyltriphenylphosphonium bromide] + OCC(O)CO    false (0)
2  C[N+](C)(C)CCO.[Cl-] [choline chloride] + OCC(O)CO     true (1)
3  CCN(CC)CCO.Cl [2-(diethylamino)ethanol hydrochloride] + OCCO     true (1)
4  CCN(CC)CCO.Cl [2-(diethylamino)ethanol hydrochloride] + OCC(O)CO    false (0)

---

Assay: xn = mol fraction of the nth substance listed
Settings: 328.15 K; 101 kPa; Liquid; Direct current cell with electrodes; x1 = 0.34
Listed next: entries and their corresponding electrical conductivity.
experimental endpoint: electrical conductivity (S/m)

>>> df
                                   compound    experimental_endpoint  units_symbol  assay_result
0  C[N+](C)(C)CCO.[Cl-] [choline chloride] + OCC(O)CO  electrical conductivity           S/m         0.605
1  CCN(CC)CCO.Cl [2-(diethylamino)ethanol hydrochloride] + OCC(O)CO  electrical conductivity           S/m          0.39
2  CCN(CC)CCO.Cl [2-(diethylamino)ethanol hydrochloride] + OCCO  electrical conductivity           S/m          1.43
3  C[P+](c1ccccc1)(c1ccccc1)c1ccccc1.[Br-] [methyltriphenylphosphonium bromide] + OCC(O)CO  electrical conductivity           S/m        0.0701
4  C[N+](C)(C)CCO.[Cl-] [choline chloride] + OCCO  electrical conductivity           S/m          2.02

---

Assay: xn = mol fraction of the nth substance listed
Conditions: 353.15 K; 101 kPa; Liquid; Direct current cell with electrodes; x1 = 0.2
experimental endpoint: electrical conductivity

>>> print(df.to_string())
                                   molecule  assay_result
0  CCN(CC)CCO.Cl [2-(diethylamino)ethanol hydrochloride] + OCCO      2.41 S/m
1  C[P+](c1ccccc1)(c1ccccc1)c1ccccc1.[Br-] [methyltriphenylphosphonium bromide] + OCC(O)CO     0.359 S/m
2  C[P+](c1ccccc1)(c1ccccc1)c1ccccc1.[Br-] [methyltriphenylphosphonium bromide] + OCCO         1 S/m
3  CCN(CC)CCO.Cl [2-(diethylamino)ethanol hydrochloride] + OCC(O)CO      0.61 S/m

---

Assay: xn = mol fraction of the nth substance listed
Details: 333.15 K; 101 kPa; Liquid; Direct current cell with electrodes; x1 = 0.34
Mark criterion met only for electrical conductivity values smaller than 2 S/m; exact matches and larger values are criterion not met.

In [3]: df
Out[3]:
                                   compound        class_label
0  C[N+](C)(C)CCO.[Cl-] [choline chloride] + OCCO  criterion not met
1  CCN(CC)CCO.Cl [2-(diethylamino)ethanol hydrochloride] + OCCO      criterion met
2  CCN(CC)CCO.Cl [2-(diethylamino)ethanol hydrochloride] + OCC(O)CO      criterion met
3  C[P+](c1ccccc1)(c1ccccc1)c1ccccc1.[Br-] [methyltriphenylphosphonium bromide] + OCC(O)CO      criterion met
4  C[N+](C)(C)CCO.[Cl-] [choline chloride] + OCC(O)CO      criterion met

---

Below is a list of entries, each paired with its recorded electrical conductivity value.
Test: xn = mol fraction of the nth substance listed
Settings: 308.15 K; 101 kPa; Liquid; Direct current cell with electrodes; x1 = 0.2
experimental endpoint: electrical conductivity (S/m)

>>> print(df.to_string())
                                   compound  assay_result
0  CCN(CC)CCO.Cl [2-(diethylamino)ethanol hydrochloride] + OCC(O)CO          0.11
1  CCN(CC)CCO.Cl [2-(diethylamino)ethanol hydrochloride] + OCCO         0.825
2  C[P+](c1ccccc1)(c1ccccc1)c1ccccc1.[Br-] [methyltriphenylphosphonium bromide] + OCC(O)CO         0.037
3  C[P+](c1ccccc1)(c1ccccc1)c1ccccc1.[Br-] [methyltriphenylphosphonium bromide] + OCCO         0.265

---

Listing: electrical conductivity of selected compounds
Experiment: xn = mol fraction of the nth substance listed
Details: 323.15 K; 101 kPa; Liquid; Direct current cell with electrodes; x1 = 0.25
experimental endpoint: electrical conductivity (S/m)

>>> df
                                   compound  assay_result
0  C[P+](c1ccccc1)(c1ccccc1)c1ccccc1.[Br-] [methyltriphenylphosphonium bromide] + OCC(O)CO        0.0719
1  C[P+](c1ccccc1)(c1ccccc1)c1ccccc1.[Br-] [methyltriphenylphosphonium bromide] + OCCO         0.327
2  CCN(CC)CCO.Cl [2-(diethylamino)ethanol hydrochloride] + OCCO          1.31
3  CCN(CC)CCO.Cl [2-(diethylamino)ethanol hydrochloride] + OCC(O)CO         0.264
4  C[N+](C)(C)CCO.[Cl-] [choline chloride] + OCC(O)CO         0.382

---

Test: xn = mol fraction of the nth substance listed
Conditions: 333.15 K; 101 kPa; Liquid; Direct current cell with electrodes; x1 = 0.25
Short version: electrical conductivity at least 0.6 S/m is 1, less is 0.

>>> print(df.to_string())
                                   compound  class_label
0  CCN(CC)CCO.Cl [2-(diethylamino)ethanol hydrochloride] + OCCO            1
1  CCN(CC)CCO.Cl [2-(diethylamino)ethanol hydrochloride] + OCC(O)CO            0
2  C[N+](C)(C)CCO.[Cl-] [choline chloride] + OCC(O)CO            0
3  C[P+](c1ccccc1)(c1ccccc1)c1ccccc1.[Br-] [methyltriphenylphosphonium bromide] + OCC(O)CO            0
4  C[P+](c1ccccc1)(c1ccccc1)c1ccccc1.[Br-] [methyltriphenylphosphonium bromide] + OCCO            0
